Enzyme Activity Endpoint Assay (purified): IgG by entry:
molecular target: pooled human IgG
Measurement Type: Enzyme Activity Endpoint Assay (purified): IgG (ng/µL)

Protein	U	Endpoint Value
PRT-620 (protein) MQITSVWTKGVTPLTPEQFRYNNEDVIHAPYLAHQGWYDITKAFDGKDNLLCGAATAGNMLHWWFDQNKTEIEAYLSKHPEKQKIIFNNQELFDLKAAIDTKDSQTNSQLFNYFRDKAFPNLSARQLGVMPDLVLDMFINGYYLNVFKTQSTDVNRPYQDKDKRGGIFDAVFTRGDQTTLLTARHDLKNKTLKEISDIIKQELTEGRALALSHTYANVSISHVINLWGADFNAEGNLEAIYVTDSDANASIGMKKYFVGINAHGHVAISAKKIEGENIGAQVLGLFTLSSGKDIWQKLSLEHHHHHH	ng/µL	0
PRT-62 (protein) MANQEIRYSEVTPYHVTSVWTKGVTPPANFTQGEDVFHAPYVANQGWYDITKTFNGKDDLLCGAATAGNMLHWWFDQNKDQIKRYLEEHPEKQKINFNGEQMFDVKEAIDTKNHQLDSKLFEYFKEKAFPYLSTKHLGVFPDHVIDMFINGYRLSLTNHGPTPVKEGSKDPRGGIFDAVFGRGDQSKLLTSRHDFKEKNLKEISDLIKKELTEGKALGLSHTYANVRINHVINLWGADFDSNGNLKAIYVTDSDSNASIGMKKYFVGVNSAGKVAISAKEIKEDNIGAQVLGLFTLSTGQDSWNQTN	ng/µL	8
PRT-74 (protein) MANQEIRYSEVTPSHVTSVWTKGVTPPANFTQGEDVFHAPYVANQGWYDITKTFNGKDNLLCGAATAGNMLHWWFDQNKEEIEAYLKKHPEKQKIMFGDQELLDVRKVINTKDSQTNSELFNYFRDKAFPGLSARRLGVMPDLVLDMFINGYYLNVYKTQTTDVNRTYQEKDRRGGIFDAVFTRGDQSKLLTSRHDFKEKTLKEISDLIKKELTEGKALGLSHTYANVRINHVINLWGADFDSNGNLKAIYVTDSDSNASIGMKKYFVGVNSAGKVAISAKEIKEDNIGAQVLGLFTLSTGQDIWNQTN	ng/µL	23
IdeZ (protein) DDYQRNATEAYAKEVPHQITSVWTKGVTPLTPEQFRYNNEDVIHAPYLAHQGWYDITKAFDGKDNLLCGAATAGNMLHWWFDQNKTEIEAYLSKHPEKQKIIFNNQELFDLKAAIDTKDSQTNSQLFNYFRDKAFPNLSARQLGVMPDLVLDMFINGYYLNVFKTQSTDVNRPYQDKDKRGGIFDAVFTRGDQTTLLTARHDLKNKGLNDISTIIKQELTEGRALALSHTYANVSISHVINLWGADFNAEGNLEAIYVTDSDANASIGMKKYFVGINAHGHVAISAKKIEGENIGAQVLGLFTLSSGKDIWQKLS	ng/µL	0

The reported numbers originate from patent US20250027068.
